- MEASUREMENT_NOTES: Ionization constant was determined
- Type: physicochemical
OBSERVATION_TYPE: pKa
Reply with the value as a number alone.

1) N[C@@H](Cn1oc(=O)[nH]c1=O)C(=O)O [QUISQUALATE] ... 4.2

Now let's try a different one.
The recorded pKa for NC(CN1CC(=O)NC1=O)C(=O)O (configuration not stated) is 8.2

###

- MEASUREMENT_NOTES: Inhibition of specific brain peptidase
OBSERVATION_TYPE: pIC50
The quantity pIC50 is defined as the negative base-10 logarithm of the molar concentration.

The recorded pIC50 for N[C@@H](Cn1oc(=O)[nH]c1=O)C(=O)O [QUISQUALATE] is 6.32
